Where do the numbers come from? From patent US20050202973A1.

Listed here: items and their measured Pre-emergence herbicidal action rating, Euph.
Tested on: Euphorbia (Euph)
assay_comment: Pre-emergence herbicidal action (Example B1)
Assay type: in vivo
condition_parameters: 1000 g of active compound per ha; sprayed immediately after sowing; evaluated after 4 weeks; scale of nine ratings (1=total damage, 9=no action)
# print the numeric value only

Please state recorded Pre-emergence herbicidal action rating, Euph (tested on Euphorbia (Euph)) of N#CCc1cc(C#CCOc2ncc(Cl)cn2)ccc1F [Compound 7.022] 3

Please state recorded Pre-emergence herbicidal action rating, Euph (tested on Euphorbia (Euph)) of COc1nc(Cl)cnc1OCC#Cc1cccc(CC#N)c1 [Compound 1.041] 1

Please state recorded Pre-emergence herbicidal action rating, Euph (tested on Euphorbia (Euph)) of COc1nccnc1OCC#Cc1cccc(CC#N)c1 [Compound 1.048] 1

Please state recorded Pre-emergence herbicidal action rating, Euph (tested on Euphorbia (Euph)) of N#CCc1cccc(C#CCOc2ncc(Br)cn2)c1 [Compound 7.006] 1

----------
Tested on: Euphorbia (Euph)
assay_comment: Post-emergence herbicidal action (Example B2)
Assay type: in vivo
condition_parameters: 1000 g of active compound per ha; post-emergence spray at 2- to 3-leaf stage; evaluated after 2 to 3 weeks; scale 1=total damage, 9=no action
Listed here: items and their measured Post-emergence herbicidal action rating, Euph.

Example entries begin here.
{"columns": ["molecule", "target_entity", "measured_value"],
 "data": [
  ["N#CCc1cc(C#CCOc2ncc(Cl)cn2)c(F)cc1F [7.031]", "Euphorbia (Euph)", 3],
  ["COc1nccnc1OCC#Cc1cccc(CC#N)c1 [Compound 1.048]", "Euphorbia (Euph)", 1],
  ["N#CCc1cccc(C#CCOc2ncc(F)cn2)c1 [7.008]", "Euphorbia (Euph)", 2],
  ["N#CCc1ccc(F)c(C#CCOc2ncc(Cl)cn2)c1 [7.028]", "Euphorbia (Euph)", 1],
  ["N#CCc1cccc(C#CCOc2ncc(Br)cn2)c1 [Compound 7.006]", "Euphorbia (Euph)", 1]
]}

Next molecule, please.
Which measured Post-emergence herbicidal action rating, Euph value corresponds to COc1nc(Cl)cnc1OCC#Cc1cccc(CC#N)c1 [Compound 1.041] ? 1

----------
Tested on: Panicum (Pani)
assay_comment: Pre-emergence herbicidal action (Example B1)
Format: in vivo
condition_parameters: 1000 g of active compound per ha; sprayed immediately after sowing; evaluated after 4 weeks; scale of nine ratings (1=total damage, 9=no action)
recorded_endpoint: Pre-emergence herbicidal action rating, Pani
# print the numeric value only

Example entries begin here.
{"columns": ["molecule_smiles", "measured_value"],
 "data": [
  ["N#CCc1cccc(C#CCOc2ncc(Br)cn2)c1", 2],
  ["COc1nccnc1OCC#Cc1cccc(CC#N)c1", 4],
  ["N#CCc1cc(C#CCOc2ncc(Cl)cn2)ccc1F", 1]
]}

Which measured Pre-emergence herbicidal action rating, Pani value corresponds to COc1nc(Cl)cnc1OCC#Cc1cccc(CC#N)c1 ? 1

----------
Test system: Euphorbia (Euph)
assay_comment: Post-emergence herbicidal action (Example B2)
Format: in vivo
Parameters: key: 1=total damage; 9=no action; Ratings of from 1 to 4 (especially from 1 to 3) indicate good to very good herbicidal action
condition_parameters: 1000 g of active compound per ha; post-emergence spray at 2- to 3-leaf stage; evaluated after 2 to 3 weeks; scale 1=total damage, 9=no action
Listed here: items and their measured Post-emergence herbicidal action rating, Euph.
# print the numeric value only

{"columns": ["compound", "measured_value"],
 "data": [
  ["N#CCc1cc(C#CCOc2ncc(Cl)cn2)ccc1F [Compound 7.022]", 1]
]}

Which measured Post-emergence herbicidal action rating, Euph value corresponds to N#CCc1cc(C#CCOc2ncc(F)cn2)ccc1F [7.027] ? 2

----------
System: Veronica (Vero)
assay_comment: Post-emergence herbicidal action (Example B2)
Type: in vivo
Parameters: key: 1-9 scale: 1 = total damage, 9 = no action
condition_parameters: 1000 g of active compound per ha; post-emergence spray at 2- to 3-leaf stage; evaluated after 2 to 3 weeks; scale 1=total damage, 9=no action
recorded_endpoint: Post-emergence herbicidal action rating, Vero
# print the numeric value only

Example entries begin here.
{"columns": ["molecule_smiles", "target_entity", "measured_value"],
 "data": [
  ["N#CCc1cc(C#CCOc2ncc(Cl)cn2)c(F)cc1F", "Veronica (Vero)", 2],
  ["N#CCc1cccc(C#CCOc2ncc(F)cn2)c1", "Veronica (Vero)", 2],
  ["N#CCc1cccc(C#CCOc2ncc(Cl)cn2)c1", "Veronica (Vero)", 3],
  ["COc1nccnc1OCC#Cc1cccc(CC#N)c1", "Veronica (Vero)", 2],
  ["N#CCc1cc(C#CCOc2ncc(Cl)cn2)ccc1F", "Veronica (Vero)", 2]
]}

Which measured Post-emergence herbicidal action rating, Vero value corresponds to COc1nc(C)ncc1OCC#Cc1cccc(CC#N)c1 ? 4

Which measured Post-emergence herbicidal action rating, Vero value corresponds to COc1nc(Cl)cnc1OCC#Cc1cccc(CC#N)c1 ? 2

----------
System: Stellaria (Stell)
assay_comment: Post-emergence herbicidal action (Example B2)
Assay type: in vivo
condition_parameters: 1000 g of active compound per ha; post-emergence spray at 2- to 3-leaf stage; evaluated after 2 to 3 weeks; scale 1=total damage, 9=no action
recorded_endpoint: Post-emergence herbicidal action rating, Stell
# print the numeric value only

{"columns": ["compound", "measured_value"],
 "data": [
  ["COc1nccnc1OCC#Cc1cccc(CC#N)c1 [Compound 1.048]", 2]
]}

Please state recorded Post-emergence herbicidal action rating, Stell (tested on Stellaria (Stell)) of COc1nc(Cl)cnc1OCC#Cc1cccc(CC#N)c1 [Compound 1.041] 2

Please state recorded Post-emergence herbicidal action rating, Stell (tested on Stellaria (Stell)) of N#CCc1cccc(C#CCOc2ncc(Br)cn2)c1 [Compound 7.006] 4

Please state recorded Post-emergence herbicidal action rating, Stell (tested on Stellaria (Stell)) of N#CCc1ccc(F)c(C#CCOc2ncc(Cl)cn2)c1 [7.028] 1

Please state recorded Post-emergence herbicidal action rating, Stell (tested on Stellaria (Stell)) of N#CCc1cc(C#CCOc2ncc(F)cn2)ccc1F [7.027] 3

Please state recorded Post-emergence herbicidal action rating, Stell (tested on Stellaria (Stell)) of COc1nc(C)ncc1OCC#Cc1cccc(CC#N)c1 [4.033] 2

Please state recorded Post-emergence herbicidal action rating, Stell (tested on Stellaria (Stell)) of N#CCc1cc(C#CCOc2ncc(Cl)cn2)ccc1F [Compound 7.022] 3

----------
Tested on: Euphorbia (Euph)
assay_comment: Post-emergence herbicidal action (Example B2)
Assay type: in vivo
condition_parameters: 1000 g of active compound per ha; post-emergence spray at 2- to 3-leaf stage; evaluated after 2 to 3 weeks; scale 1=total damage, 9=no action
Listed here: items and their measured Post-emergence herbicidal action rating, Euph.
# print the numeric value only

{"columns": ["molecule_smiles", "measured_value"],
 "data": [
  ["COc1nc(C)ncc1OCC#Cc1cccc(CC#N)c1", 2],
  ["COc1cncnc1OCC#Cc1cccc(CC#N)c1", 1]
]}

Next compound, please.
Which measured Post-emergence herbicidal action rating, Euph value corresponds to N#CCc1cccc(C#CCOc2ncc(Cl)cn2)c1 ? 1

----------
Test system: Veronica (Vero)
assay_comment: Post-emergence herbicidal action (Example B2)
Assay type: in vivo
Set-up: key: 1-9 scale: 1 = total damage, 9 = no action
condition_parameters: 1000 g of active compound per ha; post-emergence spray at 2- to 3-leaf stage; evaluated after 2 to 3 weeks; scale 1=total damage, 9=no action
Listed here: items and their measured Post-emergence herbicidal action rating, Vero.
# print the numeric value only

Which measured Post-emergence herbicidal action rating, Vero value corresponds to N#CCc1cccc(C#CCOc2ncc(Br)cn2)c1 [Compound 7.006] ? 5

Which measured Post-emergence herbicidal action rating, Vero value corresponds to N#CCc1cc(C#CCOc2ncc(F)cn2)ccc1F [7.027] ? 4

Which measured Post-emergence herbicidal action rating, Vero value corresponds to N#CCc1ccc(F)c(C#CCOc2ncc(Cl)cn2)c1 [7.028] ? 2

Which measured Post-emergence herbicidal action rating, Vero value corresponds to COc1cncnc1OCC#Cc1cccc(CC#N)c1 [Compound 5.025] ? 4

----------
System: Stellaria (Stell)
assay_comment: Post-emergence herbicidal action (Example B2)
Type: in vivo
condition_parameters: 1000 g of active compound per ha; post-emergence spray at 2- to 3-leaf stage; evaluated after 2 to 3 weeks; scale 1=total damage, 9=no action
recorded_endpoint: Post-emergence herbicidal action rating, Stell
# print the numeric value only

{"columns": ["molecule_smiles", "measured_value"],
 "data": [
  ["N#CCc1cc(C#CCOc2ncc(Cl)cn2)c(F)cc1F", 3],
  ["N#CCc1cccc(C#CCOc2ncc(Cl)cn2)c1", 3],
  ["N#CCc1cccc(C#CCOc2ncc(F)cn2)c1", 2]
]}

Please state recorded Post-emergence herbicidal action rating, Stell (tested on Stellaria (Stell)) of COc1cncnc1OCC#Cc1cccc(CC#N)c1 1
